# Experimental system: Cellular tumor antigen p53 (Homo sapiens)
# Protocol: TOX21_p53_BLA_p3_ratio: Tox21 HCT-116 p53 Agonism Beta-lactamase Assay, Ratio, Phase 3 (AID 2283596)
Records with an inconclusive call do not appear. The source made the active and inactive calls. The calls were made as follows: active = hit-call score of the fitted dose curve at least 0.9, where 1 is the maximum; inconclusive = response in the unintended direction; inactive = score below 0.9.
Please reply with one of these outcomes: active, inactive

Given O=C(c1ccccc1)c1cc(Cl)ccc1O , state the outcome it received in this test.
inactive

Given Cc1occc1S , state the outcome it received in this test.
inactive

Given c1ccc2c(CC3=NCCN3)cccc2c1 , state the outcome it received in this test.
inactive

Given COc1cc(C)nc(-n2nc(C)cc2OC)n1 , state the outcome it received in this test.
inactive

Given COc1cc(Cc2cnc(N)nc2N)cc(OC)c1OC , state the outcome it received in this test.
inactive

Given CC(C)(O)c1ccccc1CC[C@@H](SCC1(CC(=O)O)CC1)c1cccc(/C=C/c2ccc3ccc(Cl)cc3n2)c1 , state the outcome it received in this test.
active

Given Cc1ccc(-n2nc(C(C)(C)C)cc2NC(=O)Nc2ccc(OCCN3CCOCC3)c3ccccc23)cc1 , state the outcome it received in this test.
inactive

Given O=C[C@H](O)[C@@H](O)[C@@H](O)[C@H](O)CO , state the outcome it received in this test.
inactive

Given NC(=O)NC(=O)Cc1ccccc1 , state the outcome it received in this test.
inactive

Given CC(=O)O[C@H]1C[C@@H]2CC[C@@H]3[C@H](CC[C@@]4(C)[C@H]3C[C@H]([N+]3(C)CCCCC3)[C@@H]4OC(C)=O)[C@@]2(C)C[C@@H]1N1CCCCC1 , state the outcome it received in this test.
inactive

Given CCN(CC)CCNC(=O)c1c(C)[nH]c(/C=C2\C(=O)Nc3ccc(F)cc32)c1C , state the outcome it received in this test.
inactive

Given CC(=O)Nc1ccc(S(=O)(=O)Nc2ccc([N+](=O)[O-])cc2)cc1 , state the outcome it received in this test.
inactive

Given CCN(CC)c1cccc(O)c1 , state the outcome it received in this test.
inactive

Given CO , state the outcome it received in this test.
inactive

Given CCOc1cc(CC(=O)N[C@@H](CC(C)C)c2ccccc2N2CCCCC2)ccc1C(=O)O , state the outcome it received in this test.
inactive

Given NC(=O)N[C@@H](CCC(=O)O)C(=O)O , state the outcome it received in this test.
inactive

Given CCn1cc(C(=O)O)c(=O)c2cc(F)c(N3CCN(C)CC3)cc21 , state the outcome it received in this test.
inactive

Given CCOC(=O)COc1ccc2c(=O)cc(-c3ccccc3)oc2c1 , state the outcome it received in this test.
inactive

Given Cc1oc(C)c(C(=O)Nc2ccccc2)c1C , state the outcome it received in this test.
inactive

Given C=C1CC[C@@H]2[C@](C)(CO)[C@H](O)CC[C@@]2(C)[C@@H]1C/C=C1/C(=O)OC[C@H]1O , state the outcome it received in this test.
inactive

Given O=c1[nH]c(=O)n([C@H]2C[C@H](O)[C@@H](CO)O2)cc1/C=C/Br , state the outcome it received in this test.
inactive

Given NC(=O)c1cc[n+](CC2=C(C(=O)O)N3C(=O)[C@@H](NC(=O)[C@@H](c4ccccc4)S(=O)(=O)[O-])[C@H]3SC2)cc1 , state the outcome it received in this test.
inactive

Given CCCCCCCC/C=C\CCCCCCCCOCCO , state the outcome it received in this test.
active
